- system: T1, PCSK9Δhelix (human, Chemically biotinylated in the phage ELISAs; the site is not given.)
- T1 construct: construct M1-Q692 with engineered TEV site, cleaved by TEV; also called His-PCSK9Δhelix; open groove PCSK9Δhelix
- T1 sequence (prodomain, as listed by the source mutant limits assumed, chain 1 of 2): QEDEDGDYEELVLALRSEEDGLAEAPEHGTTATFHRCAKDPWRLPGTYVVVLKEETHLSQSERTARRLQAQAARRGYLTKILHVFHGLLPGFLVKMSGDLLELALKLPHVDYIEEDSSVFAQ
- T1 sequence (chain, as listed by the source mutant limits assumed, chain 2 of 2): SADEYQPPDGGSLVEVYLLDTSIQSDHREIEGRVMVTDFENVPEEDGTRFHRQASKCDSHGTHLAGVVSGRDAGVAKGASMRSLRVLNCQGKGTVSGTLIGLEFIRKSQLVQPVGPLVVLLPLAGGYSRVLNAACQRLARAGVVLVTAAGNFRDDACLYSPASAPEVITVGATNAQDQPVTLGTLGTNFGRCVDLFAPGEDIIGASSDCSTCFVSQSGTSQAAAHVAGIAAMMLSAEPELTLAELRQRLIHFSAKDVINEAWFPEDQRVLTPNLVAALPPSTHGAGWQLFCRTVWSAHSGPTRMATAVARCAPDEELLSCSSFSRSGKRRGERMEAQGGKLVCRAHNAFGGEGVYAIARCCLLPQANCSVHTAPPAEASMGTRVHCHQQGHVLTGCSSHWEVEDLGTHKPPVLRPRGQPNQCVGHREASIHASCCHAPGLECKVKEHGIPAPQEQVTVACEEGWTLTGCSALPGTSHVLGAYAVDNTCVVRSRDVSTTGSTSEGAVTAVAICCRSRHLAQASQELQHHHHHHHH
- protocol_notes: phage spot ELISA
Ends that are not written are not given here.
assay_metric: ELISA
Answers are plain numbers.

Sample SGGSMPWNLERIFALH [SEQ ID NO 390] — what was its ELISA? 3.19

Please give ELISA for each item listed below.
1. SGRCLNHLISGNMNSC [SEQ ID NO 387]
2. SGACVKPCIAGNIIR [SEQ ID NO 388]
3. SGDLMPWNLVRIGLLR [SEQ ID NO 389]
4. SGGACPWNLERIGLSC [SEQ ID NO 384]
5. SGCFIPWNLQRIGLLC (not fully specified (C-terminus, bridges); cysteine pairing not given here) [SEQ ID NO 383]
6. SGCSDLWNLARIYPMC [SEQ ID NO 391]

2.88
2.09
3.23
1.94
3.07
2.21
